Overview of recorded EC50 for various compounds
Molecular target: human muscarinic M4 receptor (Homo sapiens)
Construct: expressed in transfected cells
Sequence (P08173 whole entry): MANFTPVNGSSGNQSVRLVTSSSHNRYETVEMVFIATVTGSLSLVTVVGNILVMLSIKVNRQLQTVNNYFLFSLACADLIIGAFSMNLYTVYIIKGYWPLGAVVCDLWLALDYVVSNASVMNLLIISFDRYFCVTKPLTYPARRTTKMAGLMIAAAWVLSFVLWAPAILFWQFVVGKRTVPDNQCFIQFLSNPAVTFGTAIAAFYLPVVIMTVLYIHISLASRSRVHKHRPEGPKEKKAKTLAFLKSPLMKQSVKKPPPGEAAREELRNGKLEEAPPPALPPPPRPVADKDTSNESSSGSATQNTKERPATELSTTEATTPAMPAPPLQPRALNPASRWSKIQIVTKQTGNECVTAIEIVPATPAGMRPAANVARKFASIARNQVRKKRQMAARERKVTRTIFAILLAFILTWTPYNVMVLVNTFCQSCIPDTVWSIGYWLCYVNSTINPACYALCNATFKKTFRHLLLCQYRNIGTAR
Assay: Alphascreen Surefire phospho-ERK1/2 functional assay, CHO cells expressing M4
Assay type: cell-based
Settings: agonist, CHO cells, phospho-ERK1/2; read-out: pEC50 M4 (converted)
The number alone won't do; follow it with the unit.

Answered examples (2):
compound	endpoint_label	reported
CCOC(=O)N1CC2(CC(N3CCC(N4CCC[C@@H]4c4cn(C)c(=O)o4)CC3)C2)C1	EC50	39.8 nM
CCOC(=O)N1CC2(CCC(N3CCC(N4C(=O)CC[C@H]4CC)CC3)C2)C1 (mixture of isomers) [Example 2-9 (mixture of isomers)]	EC50	3.16 nM

Now for a further compound.
QUERY: Requested read-out: EC50. Entry: CCOC(=O)N1CC2(CCC(N3CCC(N4CCC[C@@H]4c4cnco4)CC3)C2)C1 (single isomer, unassigned) [Example 2-12 (Isomer 2)]
RESULT: 1 nM

* * *

Overview of recorded Emax for various molecules
Target: human muscarinic M4 receptor (Homo sapiens)
Construct: expressed in transfected cells
Experiment: Alphascreen Surefire phospho-ERK1/2 functional assay, CHO cells expressing M4
Type: cell-based
Settings: CHO, read-out: % Emax cf. ACh, M4
Reply with just the number (in %).

Answered examples (4):
molecule	Emax (%)
CCOC(=O)N1CC2(CC(N3CCC(c4nccn4C)CC3)C2)C1 [Example 1-2]	100
CCOC(=O)N1CC2(CCC(N3CCC(N4C(=O)CC[C@H]4CC)CC3)C2)C1 (mixture of isomers) [Example 2-9 (mixture of isomers)]	123
CCOC(=O)N1CC2(CCC(N3CCC(N4CCC[C@@H]4c4cnco4)CC3)C2)C1 (single isomer, unassigned) [Example 2-12 (Isomer 2)]	114
CCOC(=O)N1CC2(CC(N3CCC([C@@H]4CCCN4C(=O)NC)CC3)C2)C1 [Example 1-4]	97

Now for a further molecule.
QUERY: Requested read-out: Emax. Entry: CCOC(=O)N1CC2(CC(N3CCC(N4CC(F)(F)C[C@@H]4CO)CC3)C2)C1 [Example 1-12]
RESULT: 88

Hey, just so you know, these numbers are from patent US11324738B2.
